IC50 overview
target: Rhodesain (Trypanosoma brucei rhodesiense); assay: Inhibition of recombinant Trypanosoma brucei rhodesain expressed in Pichia pastoris using Z-FR-AMC as substrate and measured at 12 sec interval for 5 mins without preincubation by fluorimetric analysis
Sequence (Q95PM0 whole entry): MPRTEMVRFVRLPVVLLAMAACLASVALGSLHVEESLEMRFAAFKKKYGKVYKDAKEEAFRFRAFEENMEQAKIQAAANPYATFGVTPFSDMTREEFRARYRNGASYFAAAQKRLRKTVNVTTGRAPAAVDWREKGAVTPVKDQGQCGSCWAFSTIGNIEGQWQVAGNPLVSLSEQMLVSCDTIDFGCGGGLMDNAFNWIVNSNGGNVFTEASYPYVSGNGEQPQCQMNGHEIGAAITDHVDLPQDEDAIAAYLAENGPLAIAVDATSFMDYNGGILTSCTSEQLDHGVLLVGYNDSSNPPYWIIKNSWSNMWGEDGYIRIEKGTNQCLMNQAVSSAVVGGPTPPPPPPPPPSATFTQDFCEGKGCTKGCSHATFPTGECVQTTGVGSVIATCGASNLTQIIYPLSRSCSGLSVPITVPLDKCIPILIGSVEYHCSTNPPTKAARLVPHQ

# chemicalSmiles, IC50
rows = [
    ("Cl.Cl.Clc1cc(Br)ccc1-c1ccc(CNCC2CCNCC2)o1", "53 µM"),
    ("c1ccc(CNc2nc(Nc3ccccc3)nc3ccccc23)cc1", "30 µM"),
]

---

target: cathepsin B (Rattus norvegicus, UniProt P00787); experiment: Inhibition of rat cathepsin B at 1 uM using Z-FR-AMC as substrate preincubated for 5 mins followed by substrate addition and measured after 15 mins by microplate reader based assay relative to control; settings: probe Z-FR-AMC
Sequence (P00787 whole entry): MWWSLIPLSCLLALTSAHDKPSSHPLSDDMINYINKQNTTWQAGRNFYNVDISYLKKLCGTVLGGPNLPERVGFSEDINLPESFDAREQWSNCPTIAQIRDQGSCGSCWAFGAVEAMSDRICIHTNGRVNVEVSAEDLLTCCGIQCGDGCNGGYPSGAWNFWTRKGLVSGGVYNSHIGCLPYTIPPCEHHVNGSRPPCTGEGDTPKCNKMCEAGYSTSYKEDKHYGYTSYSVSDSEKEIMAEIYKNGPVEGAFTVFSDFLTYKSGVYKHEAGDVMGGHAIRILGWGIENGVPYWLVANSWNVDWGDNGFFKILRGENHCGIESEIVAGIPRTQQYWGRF

# chemicalSmiles, inhibition at 0.25 h, 1 µM / %
rows = [
    ("CC(C)C[C@H](NC(=O)[C@H]1O[C@@H]1C(=O)O)C(=O)NCCCCN=C(N)N", 100),
]

---

inhibition overview
target: Cruzipain (Trypanosoma cruzi) (UniProt P25779); experiment: Inhibition of recombinant Trypanosoma cruzi cruzain at 100 uM using Z-FR-AMC as substrate preincubated for 10 mins followed by substrate addition and measured at 12 sec interval for 5 mins by fluorimetric analysis relative to control; details: time 15.0 min
Sequence (P25779 123-467 limits assumed): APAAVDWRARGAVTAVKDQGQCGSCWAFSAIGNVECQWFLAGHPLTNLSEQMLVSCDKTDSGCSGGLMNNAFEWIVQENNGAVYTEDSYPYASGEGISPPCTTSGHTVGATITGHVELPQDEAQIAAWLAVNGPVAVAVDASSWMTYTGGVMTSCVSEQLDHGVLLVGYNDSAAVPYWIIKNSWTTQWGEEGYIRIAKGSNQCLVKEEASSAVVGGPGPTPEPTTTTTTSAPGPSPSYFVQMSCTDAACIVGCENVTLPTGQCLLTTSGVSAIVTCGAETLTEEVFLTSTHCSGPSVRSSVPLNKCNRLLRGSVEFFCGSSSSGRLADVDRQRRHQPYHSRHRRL

# compound, inhibition / %
records = [
    ("c1ccc(CNc2nc(Nc3ccccc3)nc3ccccc23)cc1", 90),
    ("COCCNCC(O)Cn1c2ccc(Cl)cc2c2cc(Cl)ccc21 (stereo not given)", 67),
    ("Cc1cc(Nc2ccc(C)c(Cl)c2)n2nc(C(F)(F)F)nc2n1", 16),
    ("COCCNC(=O)c1ccc(OC2CCN(Cc3ccc(F)c(F)c3)CC2)c(Cl)c1", 78),
    ("FC(F)(F)c1cccc(CNC2CCN(CCc3ccccc3)CC2)c1", 22),
]

---

molecular target: cathepsin S (Homo sapiens, UniProt P25774); assay: Inhibition of recombinant human cathepsin S expressed in Escherichia coli at 100 uM using Z-VVR-AMC as substrate preincubated for 10 mins followed by substrate addition and measured after 15 mins by microplate reader based assay relative to control; settings: probe Z-VVR-AMC, in the assay text read “preincubated for 5 mins” for “preincubated for 10 mins”, time 20 min
Sequence (P25774 whole entry): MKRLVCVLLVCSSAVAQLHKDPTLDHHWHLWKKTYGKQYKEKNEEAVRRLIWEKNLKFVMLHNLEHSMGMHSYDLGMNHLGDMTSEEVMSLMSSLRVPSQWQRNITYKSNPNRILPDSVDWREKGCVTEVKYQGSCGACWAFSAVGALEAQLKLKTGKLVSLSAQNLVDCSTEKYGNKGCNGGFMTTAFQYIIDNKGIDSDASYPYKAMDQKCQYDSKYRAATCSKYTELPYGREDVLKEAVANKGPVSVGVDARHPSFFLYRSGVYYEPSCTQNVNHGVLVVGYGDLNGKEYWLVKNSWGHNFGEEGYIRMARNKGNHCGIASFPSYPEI
inhibition at 0.25 h, 100 µM overview

# chemicalSmiles, inhibition at 0.25 h, 100 µM (%)
data = [
    ("Cl.Cl.Clc1cc(Br)ccc1-c1ccc(CNCC2CCNCC2)o1", 29.8),
    ("Cn1c(=O)n(C)c2cc(CNCCNc3ccnc4cc(Cl)ccc34)ccc21", 8.4),
]

---

biological target: Cruzipain (Trypanosoma cruzi); assay: Inhibition of recombinant Trypanosoma cruzi cruzain at 100 uM preincubated for 10 mins in presence of 0.1% Triton X-100 relative to control
valueType: inhibition (%)

# compound, experimentalResult
measured = [
    ("COCCNC(=O)c1ccc(OC2CCN(Cc3ccc(F)c(F)c3)CC2)c(Cl)c1", 78.6),
    ("Cl.Cl.Clc1cc(Br)ccc1-c1ccc(CNCC2CCNCC2)o1", 76.7),
    ("COCCNCC(O)Cn1c2ccc(Cl)cc2c2cc(Cl)ccc21 (centres undefined)", 47.3),
    ("Cn1c(=O)n(C)c2cc(CNCCNc3ccnc4cc(Cl)ccc34)ccc21", 56.4),
]

---

inhibition overview
biological target: Cruzipain (Trypanosoma cruzi) (UniProt P25779); assay: Inhibition of recombinant Trypanosoma cruzi cruzain at 5 uM using Z-FR-AMC as substrate and measured at 12 sec interval for 5 mins without preincubation by fluorimetric analysis relative to control
valueType: inhibition (%)

# molecule, assaySystem, experimentalResult
data = [
    ("O=C1c2ccccc2-c2nnc(-c3ccc(Br)cc3)cc21", "Cruzipain (Trypanosoma cruzi) (UniProt P25779)", 47.8),
    ("CC(=O)c1ccc(NC(=O)CSc2nc(-c3ccccc3Cl)ns2)cc1", "Cruzipain (Trypanosoma cruzi) (UniProt P25779)", 55.2),
    ("Cc1cc(NC(=O)c2cccc(C(F)(F)F)c2)n(-c2nc(-c3ccc4c(c3)OCO4)cs2)n1", "Cruzipain (Trypanosoma cruzi) (UniProt P25779)", 18.4),
    ("CN(N=O)C1=C(NC2CCCCC2)C(=O)c2ccccc2C1=O", "Cruzipain (Trypanosoma cruzi) (UniProt P25779)", 34.8),
    ("COc1cc2c3cc1Oc1c(OC)c(OC)cc4c1C(Cc1ccc(O)c(c1)Oc1ccc(cc1)CC3N(C)CC2)N(C)CC4 (stereo unspecified)", "Cruzipain (Trypanosoma cruzi) (UniProt P25779)", 22.4),
    ("Fc1ccc2[nH]c3c(NCCCN4CCOCC4)ncnc3c2c1", "Cruzipain (Trypanosoma cruzi) (UniProt P25779)", 50.7),
    ("Nc1ccc(-c2nc3cc(Cc4ccc5[nH]c(-c6ccc(N)cc6)nc5c4)ccc3[nH]2)cc1", "Cruzipain (Trypanosoma cruzi) (UniProt P25779)", 20.2),
    ("O=C(NC1CCN(Cc2ccccc2)CC1)c1cc(-c2ccncc2)nc2ccc(Cl)cc12", "Cruzipain (Trypanosoma cruzi) (UniProt P25779)", 15.2),
    ("O=C(NC1CCN(Cc2ccccc2)CC1)c1cc(C(=O)NC2CCN(Cc3ccccc3)CC2)cc(C(=O)NC2CCN(Cc3ccccc3)CC2)c1", "Cruzipain (Trypanosoma cruzi) (UniProt P25779)", 41),
    ("Cl.Cl.Clc1cc(Br)ccc1-c1ccc(CNCC2CCNCC2)o1", "Cruzipain (Trypanosoma cruzi) (UniProt P25779)", 29.1),
    ("COc1nc(Nc2ccc(C(C)C)cc2)nc(OC)n1", "Cruzipain (Trypanosoma cruzi) (UniProt P25779)", 16.8),
    ("Cc1ccc(Nc2nc(-c3ccccn3)cs2)cc1", "Cruzipain (Trypanosoma cruzi) (UniProt P25779)", 17.3),
    ("COc1ccc(C(=O)NC(c2ccc(Cl)cc2Cl)c2cc(Cl)c3cccnc3c2O)cc1 (stereo unspecified)", "Cruzipain (Trypanosoma cruzi) (UniProt P25779)", 77.6),
    ("Cn1c(=O)c2cc(C(=O)NCCCN3CCCCCC3)sc2c2ccccc21", "Cruzipain (Trypanosoma cruzi) (UniProt P25779)", 22.9),
    ("COc1ccc(C(=O)NC(c2ccccc2Cl)c2cc(Cl)c3cccnc3c2O)cc1 (stereo unspecified)", "Cruzipain (Trypanosoma cruzi) (UniProt P25779)", 17.1),
    ("FC(F)(F)c1cccc(CNC2CCN(CCc3ccccc3)CC2)c1", "Cruzipain (Trypanosoma cruzi) (UniProt P25779)", 23.1),
    ("O=C(c1ccccc1F)N(Cc1ccc(Cl)cc1)c1ccccn1", "Cruzipain (Trypanosoma cruzi) (UniProt P25779)", 40.7),
    ("c1ccc(-c2ccc(-c3nc4ccccc4[nH]3)cc2)cc1", "Cruzipain (Trypanosoma cruzi) (UniProt P25779)", 77),
    ("COc1ccc(C2c3ccc4ccccc4c3Oc3ncn(CCCN(C)C)c(=N)c32)cc1 (stereo unspecified)", "Cruzipain (Trypanosoma cruzi) (UniProt P25779)", 55.6),
    ("O=C(CSc1ccc2nnc(-c3cccc(F)c3)n2n1)Nc1ccc2c(c1)OCO2", "Cruzipain (Trypanosoma cruzi) (UniProt P25779)", 10.2),
    ("O=C(Nc1ccc(-c2nc3cc(NC(=O)c4ccc(Cl)cc4)ccc3[nH]2)cc1)c1ccc(Cl)cc1", "Cruzipain (Trypanosoma cruzi) (UniProt P25779)", 15),
    ("CCN(CC)CCNc1ncnc2c1[nH]c1ccc(Br)cc12", "Cruzipain (Trypanosoma cruzi) (UniProt P25779)", 57),
    ("CCOC(=O)c1c(C)n(-c2ccccc2)c2ccc(OC(=O)c3cc(OC)c(OC)c(OC)c3)cc12", "Cruzipain (Trypanosoma cruzi) (UniProt P25779)", 36.8),
    ("CCOc1ccc(/C=C/c2nc(=O)c3ccccc3o2)cc1", "Cruzipain (Trypanosoma cruzi) (UniProt P25779)", 30.1),
    ("CCCCCCc1cc2cc(-c3csc(/C=C/c4ccccc4)n3)c(=O)oc2cc1O", "Cruzipain (Trypanosoma cruzi) (UniProt P25779)", 8.9),
    ("Nc1ccc(-c2nc3cc(Oc4ccc(Oc5ccc6[nH]c(-c7ccc(N)cc7)nc6c5)cc4)ccc3[nH]2)cc1", "Cruzipain (Trypanosoma cruzi) (UniProt P25779)", 88.6),
]
